protocol details: Half-life and liver clearance rate by human liver microsomes (HLM) at 0.5 mg/mL
Format: in vitro ADME
conditions: liver microsomes, 100 μM
Procedure: Sampling was conducted at 1, 20, 40, 60, 120,180 and 240 minutes and the remaining concentration of each compound was evaluated. A half life (T1/2) was calculated at each concentration, along with the rate of clearance by the liver (CL). The CL values compare favorably with published values for other marketed therapeutic agents under identical conditions. […]
Measured microsomal CLint at 100 µM accompanies every entry in the list below.
Write your answer as a measured quantity: the number, then the unit.

{"columns": ["chem smiles", "result"],
 "data": [
  ["CN1CCN(C(=S)NN=C2c3ncccc3-c3cccnc32)CC1", "2.5 µL/min/mg"]
]}

Proceed to the following item.
For S=C(N/N=C1/CCCc2cccnc21)N1CCN(c2ccccn2)CC1 , write its microsomal CLint at 100 µM.
2 µL/min/mg

* * *

Test system: SW620
protocol details: Tumor cell proliferation, single agents and combinations, SW620
Assay type: cell-based, human
conditions: Homo sapiens, SW-620, 96 h, read-out: concentration to reduce growth by 50% (IC50); SW620, 4 day assessment
pIC50: −log10 of the molar value.
readout kind: pIC50

Kindly indicate its recorded pIC50. Item: C#Cc1cccc(Nc2ncnc3cc(OCCOC)c(OCCOC)cc23)c1 [Tarceva®, erlotinib]
< 5.00

* * *

measured target: CYP2B6 (Homo sapiens, UniProt P20813)
Sequence (P20813 whole entry): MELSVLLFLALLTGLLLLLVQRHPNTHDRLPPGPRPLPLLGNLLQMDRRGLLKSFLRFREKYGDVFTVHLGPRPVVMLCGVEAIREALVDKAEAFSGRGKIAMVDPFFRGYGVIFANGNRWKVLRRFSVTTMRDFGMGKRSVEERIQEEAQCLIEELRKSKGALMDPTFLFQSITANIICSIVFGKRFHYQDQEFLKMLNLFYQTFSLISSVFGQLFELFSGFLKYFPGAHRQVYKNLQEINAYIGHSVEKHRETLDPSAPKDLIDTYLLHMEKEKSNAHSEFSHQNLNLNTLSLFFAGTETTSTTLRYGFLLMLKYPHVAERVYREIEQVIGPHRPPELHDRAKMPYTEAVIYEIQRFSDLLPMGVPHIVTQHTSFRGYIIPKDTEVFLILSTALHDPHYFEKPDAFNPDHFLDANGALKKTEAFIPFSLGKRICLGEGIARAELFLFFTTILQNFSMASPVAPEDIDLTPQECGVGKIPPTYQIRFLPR
protocol details: in vitro
conditions: both, human liver microsomes, pH 7.4, probe bupropion (10 µM)
readout kind: inhibition at 15 min, 10 µM (%)
Note: unit % is implicit; provide only the numeric part.

Answer with the recorded inhibition at 15 min, 10 µM for the compound listed here: S=C(N/N=C1/CCCc2cccnc21)N1CCN(c2ccccn2)CC1
5

* * *

protocol details: B-A Permeability (TC7, pH 7.4/7.4)
conditions: human, Caco-2, pH 7.4, Percent Recovery 1st, B-A, TC7, pH 7.4/7.4; 1.0E−05 M; 1st determination
readout kind: recovery at 10 µM (%)
Provide only the numeric value, understood in %.

Answer with the recorded recovery at 10 µM for the compound listed here: COc1cc2c(c(OC)c1OC)-c1ccc(OC)c(=O)cc1[C@@H](NC(C)=O)CC2
103

* * *

measured target: CYP2C9 (Homo sapiens, UniProt P11712)
Sequence (P11712 whole entry): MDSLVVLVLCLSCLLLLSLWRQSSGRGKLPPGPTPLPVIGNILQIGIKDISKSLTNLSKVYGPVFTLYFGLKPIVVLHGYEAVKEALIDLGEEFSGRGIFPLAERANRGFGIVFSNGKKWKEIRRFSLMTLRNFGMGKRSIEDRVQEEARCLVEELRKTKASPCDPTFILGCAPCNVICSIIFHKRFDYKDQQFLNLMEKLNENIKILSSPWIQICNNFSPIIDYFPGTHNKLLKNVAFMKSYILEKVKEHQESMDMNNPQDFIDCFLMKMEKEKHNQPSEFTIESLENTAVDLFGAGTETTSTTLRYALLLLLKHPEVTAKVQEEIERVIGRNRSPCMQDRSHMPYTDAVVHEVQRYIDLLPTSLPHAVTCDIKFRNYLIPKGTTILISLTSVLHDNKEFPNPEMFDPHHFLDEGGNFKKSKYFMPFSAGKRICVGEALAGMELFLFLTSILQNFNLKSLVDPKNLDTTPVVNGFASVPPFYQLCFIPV
protocol details: in vitro
conditions: both, liver microsomes, pH 7.4, probe diclofenac
readout kind: inhibition at 15 min, 10 µM

Write down inhibition at 15 min, 10 µM measured for item S=C(N/N=C1/CCCc2cccnc21)N1CCN(c2ccccn2)CC1
< 50%

* * *

protocol details: Half-life and liver clearance rate by human liver microsomes (HLM) at 0.5 mg/mL
Format: in vitro ADME
conditions: liver microsomes, 100 μmol, read-out: In vitro T½ (converted)
readout kind: half-life at 100 µM (h)
# value in h; strip the unit string

{"columns": ["chem smiles", "measurement units", "half-life at 100 µM"],
 "data": [
  ["CN1CCN(C(=S)NN=C2c3ncccc3-c3cccnc32)CC1", "h", 8.5]
]}

Now let's try a different one.
Give recorded half-life at 100 µM. S=C(N/N=C1/CCCc2cccnc21)N1CCN(c2ccccn2)CC1
11.4

* * *

protocol details: in vitro
conditions: human, Caco-2
readout kind: efflux ratio at 10 µM

Identify efflux ratio at 10 µM associated with the compound S=C(N/N=C1/CCCc2cccnc21)N1CCN(c2ccccn2)CC1 [COTI-2]
~4.5

Hello, the source for this data is patent US8138191B2, in case you need it.
